Literature pIC50 values, system: IRAK4 (Homo sapiens (Human)).
pIC50: −log10 of the molar value.
outcome measure: pIC50

INSERT INTO results (compound, measured_value) VALUES
  ('O=C(Nc1nc2ccc(-c3cnc(CO[C@H]4CCC[C@@H]4O)nc3)cc2s1)C1CC(N2C[C@@H]3C[C@H]2CO3)C1 (stereo partly drawn)', 8.63),
  ('COc1ccc(C(=O)N2CCC(CCN(C)C[C@H]3CC[C@H](n4cc(NC(=O)c5cnn6ccc(N7CCC[C@H](O)C7)nc56)c(C(F)F)n4)CC3)CC2)cc1N1CCC(=O)NC1=O', 8.47),
  ('O=C(Nc1nc2ccc(-c3cnc(CO[C@H]4CCC[C@@H]4O)nc3)cc2s1)C1CC(N2CCCCC2)C1 (stereo partly drawn)', 8.71),
  ('C[C@H]1CN(C(=O)C23CC(C2)C3)CCN1[C@H]1C[C@@H](C(=O)Nc2nc3ccc(-c4cnc(CO[C@H]5CCC[C@@H]5O)nc4)cc3s2)C1', 8.40),
  ('CCCOCc1ncc(-c2ccc3nc(NC(=O)[C@H]4C[C@@H](N5CCN(C(=O)c6ccccn6)C[C@@H]5C)C4)sc3c2)cn1', 9.12),
  ('CC1COCCCN1C1CC(C(=O)Nc2nc3ccc(-c4cnc(CO[C@H]5CCC[C@@H]5O)nc4)cc3s2)C1 (stereo partly drawn)', 8.74),
  ('C[C@H]1CN(C2CC2)CCN1C1CC(C(=O)Nc2nc3ccc(-c4cnc(CO[C@H]5CCC[C@@H]5O)nc4)cc3s2)C1 (stereo partly drawn)', 8.71),
  ('O=C(Nc1nc2ccc(-c3cnc(CO[C@H]4CCC[C@@H]4O)nc3)c(OCc3nccs3)c2s1)C1CC1', 7.97),
  ('CN(C1CC(C(=O)Nc2nc3ccc(-c4cnc(CO[C@H]5CCC[C@@H]5O)nc4)cc3s2)C1)C12CC(C1)C2 (stereo partly drawn)', 8.89),
  ('C[C@H]1CN(CC(F)(F)F)CCN1[C@H]1C[C@@H](C(=O)Nc2cc3cc(-c4cnc(CO[C@H]5CCC[C@@H]5O)nc4)ccn3n2)C1', 8.98),
  ('O=C(Nc1nc2ccc(-c3cnc(CO[C@H]4CCC[C@@H]4O)nc3)cc2s1)C1CC(NC2(C(F)(F)F)COC2)C1 (stereo partly drawn)', 8.64),
  ('O=C(Nc1nc2ccc(-c3cnc(CO[C@H]4CCC[C@@H]4O)nc3)cc2s1)C1CC(NC2(C(F)(F)F)CC2)C1 (stereo partly drawn)', 8.58),
  ('O=C(Nc1nc2ccc(-c3cnc(CO[C@H]4CCC[C@@H]4O)nc3)cc2s1)C1CC(N2CC[C@H](O)C2)C1 (stereo partly drawn)', 8.79),
  ('Cn1cc(NC2CC(C(=O)Nc3nc4ccc(-c5cnc(CO[C@H]6CCC[C@@H]6O)nc5)cc4s3)C2)cn1 (stereo partly drawn)', 8.62),
  ('CC(C)(O)CCc1cc2cc(NC(=O)c3coc(-c4ccnc(C(F)(F)F)c4)n3)c(C(C)(C)O)cn2n1', 8.31),
  ('COc1cc2nn(CCC3CCNC3=O)cc2cc1NC(=O)c1coc(-c2ccnc(C(F)(F)F)c2)n1 (stereo not drawn)', 7.60),
  ('O=C(Nc1nc2ccc(-c3cnc(CO[C@H]4CCC[C@@H]4O)nc3)cc2s1)[C@@H]1C[C@@H]1F', 8.76),
  ('O=C(Nc1nc2ccc(-c3cnc(CO[C@H]4CCC[C@@H]4O)nc3)cc2s1)C1CC(N2CCOC3(CCCC3)C2)C1 (stereo partly drawn)', 8.44),
  ('C[C@H]1CN(C(=O)c2ccccc2)CCN1[C@H]1C[C@@H](C(=O)Nc2nc3ccc(-c4cnc(CO[C@H]5CCC[C@@H]5O)nc4)cc3s2)C1', 8.36),
  ('COc1c(-c2cnc(CO[C@H]3CCC[C@H]3O)nc2)ccn2nc(NC(=O)C3CC3)cc12', 8.97),
  ('COc1c(-c2cnc(CO[C@H]3CC(F)(F)C[C@@H]3O)nc2)ccc2nc(NC(=O)C3CC3)sc12', 8.39),
  ('Cc1cc(C(=O)N2CCN([C@H]3C[C@@H](C(=O)Nc4cc5cc(-c6cnc(CO[C@H]7CCC[C@@H]7O)nc6)ccn5n4)C3)[C@@H](C)C2)ccn1', 8.84),
  ('CN(C1CC(C(=O)Nc2nc3ccc(-c4cnc(CO[C@H]5CCC[C@@H]5O)nc4)cc3s2)C1)C12CC(C)(C1)C2 (stereo partly drawn)', 8.78),
  ('C[C@H]1CN(C(=O)C23CC(C#N)(C2)C3)CCN1[C@H]1C[C@@H](C(=O)Nc2nc3ccc(-c4cnc(CO[C@H]5CCC[C@@H]5O)nc4)cc3s2)C1', 8.49),
  ('O=C(Nc1nc2ccc(-c3cnc(CO[C@H]4CCC[C@@H]4O)nc3)cc2s1)C1CC(N2CCO[C@@H]3CCC[C@@H]32)C1 (stereo partly drawn)', 8.74),
  ('O=C(Nc1nc2ccc(-c3cnc(CO[C@H]4CCC[C@@H]4O)nc3)cc2s1)C1CC(NC2C3CC2C3)C1 (stereo partly drawn)', 8.81),
  ('CN(C1CC(C(=O)Nc2nc3ccc(-c4cnc(CO[C@H]5CCC[C@@H]5O)nc4)cc3s2)C1)C1(C(F)F)CC1 (stereo partly drawn)', 8.53);

###

Reported IC50 on IRAK4 (Homo sapiens (Human), UniProt Q9NWZ3) for assorted compounds, compiled from publications.
outcome measure: IC50 (nM)

INSERT INTO results (compound, system_tested, outcome_measure, unit_annotation, operator, measured_value) VALUES
  ('Cc1cc(C(=O)N2CCN([C@H]3C[C@@H](C(=O)Nc4cc5cc(-c6cnc(CO[C@H]7CCC[C@@H]7O)nc6)ccn5n4)C3)[C@@H](C)C2)cc(C)n1', 'IRAK4 (Homo sapiens (Human), UniProt Q9NWZ3)', 'IC50', 'nM', '=', 1.38),
  ('COc1cccc(C(=O)N2CCN([C@H]3C[C@@H](C(=O)Nc4nc5ccc(-c6cnc(CO[C@H]7CCC[C@@H]7O)nc6)cc5s4)C3)[C@@H](C)C2)n1', 'IRAK4 (Homo sapiens (Human), UniProt Q9NWZ3)', 'IC50', 'nM', '=', 1.12),
  ('C[C@H]1CN(CC(F)(F)F)CCN1C1CC(C(=O)Nc2nc3ccc(-c4cnc(CO[C@H]5CCC[C@@H]5O)nc4)cc3s2)C1 (some centres unmarked)', 'IRAK4 (Homo sapiens (Human), UniProt Q9NWZ3)', 'IC50', 'nM', '=', 2.34),
  ('C[C@H]1CN(C(=O)C2CCOC2)CCN1[C@H]1C[C@@H](C(=O)Nc2nc3ccc(-c4cnc(CO[C@H]5CCC[C@@H]5O)nc4)cc3s2)C1 (some centres unmarked)', 'IRAK4 (Homo sapiens (Human), UniProt Q9NWZ3)', 'IC50', 'nM', '=', 2.6),
  ('CC(=O)N1CCN(C2CC(C(=O)Nc3nc4ccc(-c5cnc(CO[C@H]6CCC[C@@H]6O)nc5)cc4s3)C2)CC1 (some centres unmarked)', 'IRAK4 (Homo sapiens (Human), UniProt Q9NWZ3)', 'IC50', 'nM', '=', 2.98),
  ('O=C(Nc1nc2ccc(-c3cnc(CO[C@H]4CCC[C@@H]4O)nc3)cc2s1)C1CC(NC2CCCC2)C1 (some centres unmarked)', 'IRAK4 (Homo sapiens (Human), UniProt Q9NWZ3)', 'IC50', 'nM', '=', 1.93),
  ('O=C1CCN(c2cc(C(=O)N3CCC4(CCN(C[C@H]5CC[C@H](n6cc(NC(=O)c7cnn8ccc(N9CC%10CCC(C9)O%10)nc78)c(C(F)F)n6)CC5)CC4)CC3)ccc2Cl)C(=O)N1', 'IRAK4 (Homo sapiens (Human), UniProt Q9NWZ3)', 'IC50', 'nM', '=', 7.74),
  ('O=C(Nc1nc2ccc(-c3cnc(CO[C@H]4CCC[C@@H]4O)nc3)cc2s1)C1CC(N2CCC[C@@H](F)C2)C1 (some centres unmarked)', 'IRAK4 (Homo sapiens (Human), UniProt Q9NWZ3)', 'IC50', 'nM', '=', 2.01),
  ('COc1cc2nn(CCS(=N)(=O)c3ccccn3)cc2cc1NC(=O)c1cccc(C(F)(F)F)n1 (centres unmarked)', 'IRAK4 (Homo sapiens (Human), UniProt Q9NWZ3)', 'IC50', 'nM', '=', 0.8),
  ('CC(=O)N1CCN([C@H]2C[C@@H](C(=O)Nc3nc4ccc(-c5cnc(CO[C@H]6CCC[C@@H]6O)nc5)cc4s3)C2)[C@@H](C)C1', 'IRAK4 (Homo sapiens (Human), UniProt Q9NWZ3)', 'IC50', 'nM', '=', 1.9),
  ('O=C(Nc1nc2ccc(-c3cnc(CO[C@H]4CCC[C@@H]4O)nc3)cc2s1)C1CC(N2CCCC(F)(F)C2)C1 (some centres unmarked)', 'IRAK4 (Homo sapiens (Human), UniProt Q9NWZ3)', 'IC50', 'nM', '=', 3.94),
  ('C[C@H]1CN(C(=O)c2cccnc2)CCN1[C@H]1C[C@@H](C(=O)Nc2cc3cc(-c4cnc(CO[C@H]5CCC[C@@H]5O)nc4)ccn3n2)C1', 'IRAK4 (Homo sapiens (Human), UniProt Q9NWZ3)', 'IC50', 'nM', '=', 1.38),
  ('[2H]C([2H])([2H])C(O)(CCn1cc2cc(NC(=O)c3coc(-c4ccnc(C(F)(F)F)c4)n3)c(C(C)(C)O)cc2n1)C([2H])([2H])[2H]', 'IRAK4 (Homo sapiens (Human), UniProt Q9NWZ3)', 'IC50', 'nM', '=', 5.54),
  ('CCCOCc1ncc(-c2ccc3nc(NC(=O)[C@H]4C[C@@H](N5CCN(C(=O)c6ccncc6Cl)C[C@@H]5C)C4)sc3c2)cn1', 'IRAK4 (Homo sapiens (Human), UniProt Q9NWZ3)', 'IC50', 'nM', '=', 0.65),
  ('CC(=O)N1CCN([C@H]2C[C@@H](C(=O)Nc3cc4cc(-c5cnc(CO[C@H]6CCC[C@@H]6O)nc5)ccn4n3)C2)[C@@H](C)C1', 'IRAK4 (Homo sapiens (Human), UniProt Q9NWZ3)', 'IC50', 'nM', '=', 1.32),
  ('O=C(Nc1nc2ccc(-c3cnc(CO[C@H]4CCC[C@@H]4O)nc3)c(Cl)c2s1)C1CC1', 'IRAK4 (Homo sapiens (Human), UniProt Q9NWZ3)', 'IC50', 'nM', '=', 7.89),
  ('C[C@H]1CN(C(=O)c2ccc(Cl)cn2)CCN1[C@H]1C[C@@H](C(=O)Nc2cc3cc(-c4cnc(CO[C@H]5CCC[C@@H]5O)nc4)ccn3n2)C1', 'IRAK4 (Homo sapiens (Human), UniProt Q9NWZ3)', 'IC50', 'nM', '=', 1.58),
  ('O=C(Nc1nc2ccc(-c3cnc(CO[C@H]4CCC[C@@H]4O)nc3)cc2s1)C1C[C@H]1c1ccncc1 (some centres unmarked)', 'IRAK4 (Homo sapiens (Human), UniProt Q9NWZ3)', 'IC50', 'nM', '=', 2.66),
  ('C[C@H]1CN(C(=O)c2nccs2)CCN1[C@H]1C[C@@H](C(=O)Nc2nc3ccc(-c4cnc(CO[C@H]5CCC[C@@H]5O)nc4)cc3s2)C1', 'IRAK4 (Homo sapiens (Human), UniProt Q9NWZ3)', 'IC50', 'nM', '=', 1.73),
  ('C[C@H]1CN(C(=O)c2ccccn2)CCN1[C@H]1C[C@@H](C(=O)Nc2nc3ccc(-c4cnc(CO[C@H]5CCC[C@@H]5O)nc4)cc3s2)C1', 'IRAK4 (Homo sapiens (Human), UniProt Q9NWZ3)', 'IC50', 'nM', '=', 1.89),
  ('N#Cc1cnc2c(ccn2-c2cc3c(C(F)F)nn(C4CCCCC4)c3cn2)c1', 'IRAK4 (Homo sapiens (Human), UniProt Q9NWZ3)', 'IC50', 'nM', '>', 10000),
  ('Cc1cc(-c2nc(C(=O)Nc3cc4oc(N5CCOCC5)nc4cc3N3CCC(O)C3)co2)ccn1 (centres unmarked)', 'IRAK4 (Homo sapiens (Human), UniProt Q9NWZ3)', 'IC50', 'nM', '=', 7.18),
  ('Cc1cc(-c2nc(C(=O)Nc3cc4cn(C5CC6CCC(C5)O6)nc4cc3C(C)(C)O)co2)ccn1 (centres unmarked)', 'IRAK4 (Homo sapiens (Human), UniProt Q9NWZ3)', 'IC50', 'nM', '=', 5.9),
  ('COc1cc2nn(CCS(=N)(=O)c3ccccc3)cc2cc1NC(=O)c1coc(-c2ccnc(C)c2)n1 (centres unmarked)', 'IRAK4 (Homo sapiens (Human), UniProt Q9NWZ3)', 'IC50', 'nM', '=', 0.7),
  ('CCC(=O)N1CCN([C@H]2C[C@@H](C(=O)Nc3nc4ccc(-c5cnc(CO[C@H]6CCC[C@@H]6O)nc5)cc4s3)C2)[C@@H](C)C1', 'IRAK4 (Homo sapiens (Human), UniProt Q9NWZ3)', 'IC50', 'nM', '=', 1.95),
  ('O=C(Nc1nc2ccc(-c3cnc(CO[C@H]4CCC[C@@H]4O)nc3)cc2s1)C1CC2(CCN(C(=O)c3cccnc3)CC2)C1', 'IRAK4 (Homo sapiens (Human), UniProt Q9NWZ3)', 'IC50', 'nM', '=', 0.852);
